biological target: T1, agonist-bound β2AR-356 reconstituted at high density into phospholipid vesicles (UniProt P07550 1-365); assay: ELISA on purified receptor alone
T1 construct: Solid phase coated on Maxisorb plates for ELISA; also called purified receptor alone; reconstituted receptor alone
Endpoint: binding result

>  <Binder>
Nanobody 36 (CA4436) (VHH, also called Nb36) VHH: QVQLQESGGGSVQAGGSLRLSCTVSGTIFSVTVMGWYRQAPGKQRELVAGFTNTRNTNYVDSVKGRFTISKDSAKNTMYLQMNSLKPEDTAVYYCNVRRWGGTNWNDYWGQGTQVTVSS

>  <Result>
no binding

$$$$
>  <Binder>
Nanobody 40 (CA4440) (VHH, Tested as periplasmic extract in ELISA; also called Nb40) VHH: QVQLQESGGGLVQAGGSLRLSCAVSGTIFDITPMGWYRQTPGKQREVVADLTSRGTTNYADSVKGRFTISRDNAKKMLYLQMNSLKSDDTGVYYCNVKRWGGIGWNDYWGQGTQVTVSS

>  <Result>
no binding

$$$$

Where these numbers come from: patent US20140275487A1
